Target: Bromodomain-containing protein 4 (Homo sapiens)
Assay: Inhibition of HTRF binding to N-terminal His-tagged BRD4(1) (unknown origin) using biotinylated tetra-acetylated histone H4 peptide and Cryptate-labeled streptavidin incubated for 2 hrs by TR-FRET assay
So I've got a bunch of compounds here, and I need their pIC50 values.
Here pIC50 is given on a logarithmic scale as minus log10 of the concentration in mol/L.

Lookup: Reported pIC50 for Bromodomain-containing protein 4 (Homo sapiens), given `N#Cc1cccc(-c2cncc(C(=O)N3CC(=O)Nc4ccccc43)c2)c1` ?
Found: 4.36

Lookup: Reported pIC50 for Bromodomain-containing protein 4 (Homo sapiens), given `COc1cccc(-c2cncc(C(=O)N3CC(=O)Nc4ccccc43)c2)c1` ?
Found: 4.60

Lookup: Reported pIC50 for Bromodomain-containing protein 4 (Homo sapiens), given `COc1cc(C(=O)N2CC(=O)Nc3ccccc32)cc(-c2ccccc2)c1` ?
Found: 4.89

Lookup: Reported pIC50 for Bromodomain-containing protein 4 (Homo sapiens), given `COC(=O)c1ccc(/C=C(/C(=O)N2CC(=O)Nc3ccccc32)c2ccccc2)cc1` ?
Found: 4.60

Lookup: Reported pIC50 for Bromodomain-containing protein 4 (Homo sapiens), given `O=C1CN(C(=O)c2cncc(-c3ccccc3)c2)c2ccccc2N1` ?
Found: 4.59

Lookup: Reported pIC50 for Bromodomain-containing protein 4 (Homo sapiens), given `COc1ccc(/C=C(/C(=O)N2CC(=O)Nc3ccccc32)c2ccc(C)c(C)c2)cc1` ?
Found: 4.85

Lookup: Reported pIC50 for Bromodomain-containing protein 4 (Homo sapiens), given `COc1ccc(/C=C(/C(=O)N2CC(=O)Nc3ccccc32)c2cccs2)cc1` ?
Found: 4.89

Lookup: Reported pIC50 for Bromodomain-containing protein 4 (Homo sapiens), given `COc1ccc(/C=C(/C(=O)Nc2c(C)noc2C)c2ccc(OC)cc2)cc1` ?
Found: 4.36

Lookup: Reported pIC50 for Bromodomain-containing protein 4 (Homo sapiens), given `COc1ccc(/C=C(/C(=O)N2CC(=O)Nc3ccccc32)c2ccc(OC)c(OC)c2)cc1` ?
Found: 4.74

Hello, the source for this data is ChEMBL document CHEMBL3588835, in case you need it.
